# MEASUREMENT_PROTOCOL: Toxicity liver stage against HepG2, at 10uM
# Format: cell-based
# Set-up: test concentration 10 uM, cell line HepG2-A16-CD81EGFP
# SETUP_CONDITIONS: human, HepG2-A16-CD81EGFP cells; read-out: INHIBITION
MEASURED_QUANTITY: cytotoxicity at 10 µM (%)
Please give a number only; it is taken to be in %.

Problem: Tell me its cytotoxicity at 10 µM given O=C(CCN1CCOCC1)NC1CCCN(CC2CCCCC2)C1 (stereo unspecified) as the entry.
Result: 1.64

Problem: Tell me its cytotoxicity at 10 µM given CC(C)CCn1cc(C(=O)NC2CCS(=O)(=O)C2)c2ccccc2c1=O (stereo unspecified) as the entry.
Result: -3.68

###

# MEASUREMENT_PROTOCOL: Toxicity liver stage against HepG2, at 10uM
# Format: cell-based
# Design: test concentration 10 uM, cell line HepG2-A16-CD81EGFP
# SETUP_CONDITIONS: human, HepG2-A16-CD81EGFP cells; read-out: INHIBITION
MEASURED_QUANTITY: cytotoxicity at 10 µM (%)
Please give a number only; it is taken to be in %.

Problem: Tell me its cytotoxicity at 10 µM given COc1cc(N2CCC3(CC2)OCC(=O)NC3C)ncn1 (stereo unspecified) as the entry.
Result: 1.95

Problem: Tell me its cytotoxicity at 10 µM given O=C(NC1CC1)C1CCN(c2nc3nc[nH]c(=O)c3s2)CC1 as the entry.
Result: -6.5

Problem: Tell me its cytotoxicity at 10 µM given COc1ccccc1NC(=O)NCC(O)c1ccc(F)cc1F (stereo unspecified) as the entry.
Result: 4.1

Problem: Tell me its cytotoxicity at 10 µM given Cc1oncc1C(=O)N1CC[C@H]2CO[C@H](CN3CCCC3)[C@H]2C1 as the entry.
Result: 10.8

Problem: Tell me its cytotoxicity at 10 µM given Cc1nc2ccccn2c1CN1C[C@@H](CN2CCOCC2)[C@@H](CO)C1 as the entry.
Result: 1.73

###

# MEASUREMENT_PROTOCOL: Toxicity liver stage against HepG2, at 10uM
# Type: cell-based
# Set-up: test concentration 10 uM, cell line HepG2-A16-CD81EGFP
# SETUP_CONDITIONS: human, HepG2-A16-CD81EGFP cells; read-out: INHIBITION
Reported cytotoxicity at 10 µM values are given for each entry in this list.
Please give a number only; it is taken to be in %.

Some entries whose results are on file:
* COc1cc(N2CC[C@@H]3OCCN(C)[C@H]3CC2)ncn1 | -96.6
* CC(C(=O)N(C)C)S(=O)(=O)c1cc2c(cc1Cl)OCCO2 (stereo unspecified) | 7.71
* CC(C)Cc1noc(CN2CCN(C(=O)c3cccs3)CC2)n1 | -14.3
* OCc1cc2ccccc2nc1NCC1CC1 | -46.2
* Cc1ccc(CN2CC[C@@H]3[C@H]2CCC(=O)N3Cc2ccncc2)s1 | -65.6

Problem: Tell me its cytotoxicity at 10 µM given O=C(NCCCN1CCCCC1)c1ccc(-n2ccc3ccccc32)s1 as the entry.
Result: -6.19

Problem: Tell me its cytotoxicity at 10 µM given CSC(C)(C)CNC(=O)NC1CCN(C)CC1 as the entry.
Result: 18.9

Problem: Tell me its cytotoxicity at 10 µM given Cc1csc2ncc(-c3ccnc(N4CCCN(C)CC4)n3)c(=O)n12 as the entry.
Result: -6.97

Problem: Tell me its cytotoxicity at 10 µM given CCN(Cc1ccco1)C(=O)NCc1nnc2n1CCC2 as the entry.
Result: -10.3

Problem: Tell me its cytotoxicity at 10 µM given CN(C)C[C@H]1OC[C@@H]2CCN(S(=O)(=O)c3ccc(F)cc3)C[C@@H]21 as the entry.
Result: -85.7

Problem: Tell me its cytotoxicity at 10 µM given CN1CCC(NCC2(O)CCCN(Cc3ccccc3F)C2=O)CC1 (stereo unspecified) as the entry.
Result: -12.2

###

# MEASUREMENT_PROTOCOL: Toxicity liver stage against HepG2, at 10uM
# Format: cell-based
# Set-up: test concentration 10 uM, cell line HepG2-A16-CD81EGFP
# SETUP_CONDITIONS: human, HepG2-A16-CD81EGFP cells; read-out: INHIBITION
MEASURED_QUANTITY: cytotoxicity at 10 µM (%)
Please give a number only; it is taken to be in %.

* Cc1cc(C)n(CC2CCCN2C(=O)Cc2c(C)noc2C)n1 (configuration not stated) | -4.05
* Cc1cc2ccccc2n1CCC(=O)N1CCC[C@H]1C(N)=O | -0.338
* CC(=O)c1ccc(N2CCCC(CO)(CCc3ccccc3)C2)nc1 (configuration not stated) | 1.2

Problem: Tell me its cytotoxicity at 10 µM given Cc1cnc(CN(C)C2CCN(Cc3ccccc3C#N)C2)o1 (configuration not stated) as the entry.
Result: 1.08

Problem: Tell me its cytotoxicity at 10 µM given FC(F)(F)CCN(Cc1ccon1)C1CCC1 as the entry.
Result: 1.19

Problem: Tell me its cytotoxicity at 10 µM given O=C1CCC2(CCCN(C(=O)c3ccoc3)C2)CN1Cc1ccncc1 (configuration not stated) as the entry.
Result: 3.06

Problem: Tell me its cytotoxicity at 10 µM given Cc1cccc(-c2ccc(C(=O)NCC(C)(C)C(N)=O)c(=O)[nH]2)c1 as the entry.
Result: -10.5

Problem: Tell me its cytotoxicity at 10 µM given CN(Cc1ccco1)C(=O)NCc1nnc2n1CCC2 as the entry.
Result: 16.9

Problem: Tell me its cytotoxicity at 10 µM given CC(C)C1CN(c2ncccn2)CCC(=O)N1Cc1ccc(F)cc1 (configuration not stated) as the entry.
Result: 1.76

###

# MEASUREMENT_PROTOCOL: Toxicity liver stage against HepG2, at 10uM
# Type: cell-based
# Parameters: test concentration 10 uM, cell line HepG2-A16-CD81EGFP
# SETUP_CONDITIONS: human, HepG2-A16-CD81EGFP cells; read-out: INHIBITION
Reported cytotoxicity at 10 µM values are given for each entry in this list.
Please give a number only; it is taken to be in %.

• CCCN1CC2(CCN(C)CC2)CC1C(=O)NCc1cc(C)nn1C (centres undefined) = 0.318
• Cn1nccc1-c1nc2c(cc1C(=O)O)CCN(C(=O)C1CC1)CC2 = -143
• Cc1cc(S(=O)(=O)Nc2cccc(I)c2)sc1C(=O)O = 3.76
• Cc1cccc(CO[C@H]2CO[C@@]3(CCN(S(=O)(=O)N(C)C)C3)C2)n1 = 7.7
• Cc1ccc(C)c(OCCNC(=O)[C@@H]2CCCCN2)c1 = 0.997
• CC(=O)NCC(Cc1cccc(F)c1)n1cccc1 (centres undefined) = -5.36
• Cc1c(C(=O)O)oc2ccc(I)cc12 = -1.87
• COCc1noc(-c2ccc(N3CCCCC3CO)nc2)n1 (centres undefined) = -2.38

Problem: Tell me its cytotoxicity at 10 µM given COCC1CC2(CCN(Cc3cccnc3)CC2)CN1C(C)C (centres undefined) as the entry.
Result: -4.21

Problem: Tell me its cytotoxicity at 10 µM given O=C(CN1CCCC1)N1CCCC(c2cc(=O)n3c(n2)CCCCC3)C1 (centres undefined) as the entry.
Result: -13.7

Problem: Tell me its cytotoxicity at 10 µM given O=C(CSCc1ccccn1)N(Cc1ccsc1)C1CC1 as the entry.
Result: -9.8

Problem: Tell me its cytotoxicity at 10 µM given COc1ccc2c(c1)OCC(Cc1ccnc(N)n1)C2 (centres undefined) as the entry.
Result: -0.651

Problem: Tell me its cytotoxicity at 10 µM given O=C(C1CCOCC1)N1CCO[C@H]2[C@H](OCC3CC3)CC[C@@H]21 as the entry.
Result: 2.61

Problem: Tell me its cytotoxicity at 10 µM given O=C(CCN1CCCC1=O)Nc1cnn(-c2ccccc2Cl)c1 as the entry.
Result: 5.65

###

# MEASUREMENT_PROTOCOL: Toxicity liver stage against HepG2, at 10uM
# Type: cell-based
# Design: test concentration 10 uM, cell line HepG2-A16-CD81EGFP
# SETUP_CONDITIONS: human, HepG2-A16-CD81EGFP cells; read-out: INHIBITION
Reported cytotoxicity at 10 µM values are given for each entry in this list.
Please give a number only; it is taken to be in %.

Some entries whose results are on file:
* Cc1cccc(C(=O)NCCNCC2CNc3ccnn3C2)c1 (centres undefined) | -0.00278
* COc1cc(-c2cc(OC)c(OC)c(OC)c2)ncn1 | -2.31
* CCN(C)c1ncnc2c1CCN(Cc1csc(C)n1)CC2 | -1.13
* CC1CCc2n[nH]c(C(=O)NCCCc3ccco3)c2C1 (centres undefined) | -23.2
* Cc1cccnc1[C@H](C)Nc1nc(-c2cccnc2)nc2c1CNC2 | -8.52
* CCN1CC(C(=O)N2CCN(CCn3cccc3)CC2)CCC1=O (centres undefined) | 1.87
* Cc1cc(C(=O)N2CCc3c(CN(C)C)nn(C)c3C2)[nH]n1 | -3.25
* Clc1cccnc1N1CCC(C2CCN(Cc3cccnc3)CC2)C1 (centres undefined) | 2.92

Problem: Tell me its cytotoxicity at 10 µM given Cc1nn(C)c(C)c1C1CCCN1Cc1nnc(C2CC2)n1C (centres undefined) as the entry.
Result: 1.76

Problem: Tell me its cytotoxicity at 10 µM given Cc1ccc(NC2CCN(C(=O)c3ccc(Cl)o3)CC2)nn1 as the entry.
Result: -0.961

Problem: Tell me its cytotoxicity at 10 µM given Cc1noc(C)c1CCCNC(=O)C1CCN(C(=O)C2CCC2)CC1 as the entry.
Result: 3.72

Problem: Tell me its cytotoxicity at 10 µM given OC(CN1CCN(Cc2cc(F)cc(F)c2)CC1)C1CC1 (centres undefined) as the entry.
Result: 11.5

Problem: Tell me its cytotoxicity at 10 µM given Cc1cccc2c1NC(c1cnc(C3CCC3)s1)NC2=O (centres undefined) as the entry.
Result: 5.11

Cited source for all entries: ChEMBL document CHEMBL4513216
